experiment: Inhibition of Streptococcus sobrinus glycosyl transferase
Attribute: pIC50
The value called pIC50 is obtained by taking minus log10 of the concentration in mol/L.

Please review the entries below; each comes with its answer.
O=C(O[C@@H]1Cc2c(O)cc(O)cc2O[C@@H]1c1cc(O)c(=O)c2c(O)c(O)c(O)cc2c1)c1cc(O)c(O)c(O)c1    4.96
O=c1c(O)cc([C@H]2Oc3cc(O)cc(O)c3C[C@H]2O)cc2cc(O)c(O)c(O)c12    4.85

Task item: Suppose we examine the molecule O=C(O[C@@H]1Cc2c(O)cc(O)cc2O[C@@H]1c1cc(O)c(=O)c2c(O)c(O)cc([C@H]3Oc4cc(O)cc(O)c4C[C@H]3O)c2c1)c1cc(O)c(O)c(O)c1 [THEAFLAVIN MONOGALLATES] ; what pIC50 value has been reported?
Reply: 5.11

Task item: Which pIC50 value belongs to O=C(O[C@@H]1Cc2c(O)cc(O)cc2O[C@@H]1c1cc(O)c(O)c(O)c1)c1cc(O)c(O)c(O)c1 [EPIGALOCATECHIN GALLATE] ?
Reply: 4.05
